System: A549 cells
ASSAY_NOTES: Drug combination study with colchicine (Chou-Talalay combination index)
APPLIED_CONDITIONS: combination index, colchicine held at IC10, A549 cells
MEASURED_PROPERTY: plus colchicine, mean CI
No unit in the answer, only the number.

Below, each entry is followed by its recorded plus colchicine, mean CI result.
COc1cc2c(c(OC)c1OC)-c1ccc(OC)c(=O)cc1[C@@H](N)CC2 [Col 6, deacetyl colchicine]	2.32
CONCC(=O)N[C@H]1CCc2cc(OC)c(OC)c(OC)c2-c2ccc(OC)c(=O)cc21 [Col 8, 19-N-methoxyamino-colchicine]	2.98
COc1cc2c(c(OC)c1OC)-c1ccc(OC)c(=O)cc1[C@@H](NC(=O)CN(OC)[C@H]1C[C@@H](O)[C@H](O)[C@@H](CO)O1)CC2 [Col16, 2-deoxy-D-glucoside]	5.97

Next molecule, plus colchicine, mean CI to be filled in.
In: Supply plus colchicine, mean CI value. Item: COc1cc2c(c(OC)c1OC)-c1ccc(OC)c(=O)cc1[C@@H](NC(=O)CN(OC)[C@@H]1O[C@H](CO)[C@@H](O)[C@H](O)[C@H]1F)CC2 [Col34, 2-fluoro-2-deoxy-D-glucoside]
Out: 31.49

====

Test system: Du145
ASSAY_NOTES: Cytotoxicity assay (cell titer-glo and calcein AM), Du145
APPLIED_CONDITIONS: Homo sapiens, DU-145, read-out: Cytotoxicity IC50, Du145, calcein
MEASURED_PROPERTY: IC50 (nM)
Record the value in nM, omitting the unit from your answer.

CC(=O)O[C@H]1C(=O)[C@@]2(C)[C@H]([C@H](OC(=O)c3ccccc3)[C@]3(O)C[C@H](OC(=O)[C@H](O)[C@@H](NC(=O)c4ccccc4)c4ccccc4)C(C)=C1C3(C)C)[C@]1(OC(C)=O)CO[C@@H]1C[C@@H]2O [paclitaxel, reference compound]	290

Field: next compound
In: For the compound CONCC(=O)N[C@H]1CCc2cc(OC)c(OC)c(OC)c2-c2ccc(OC)c(=O)cc21 , give its measured IC50 value.
Out: 84

====

Test system: mouse mammary normal epithelial control cell line
ASSAY_NOTES: Cytotoxicity assay, normal control cell line
APPLIED_CONDITIONS: read-out: Cytotoxicity IC50, NmuMG, calcein, calcein AM readout, % error in parentheses
MEASURED_PROPERTY: pIC50
Notebook: values listed as pIC50 are -log10 of the concentration (mol/L).

Known pIC50 results, listed for orientation:
COc1cc2c(c(OC)c1OC)-c1ccc(OC)c(=O)cc1[C@@H](NC(=O)CN(OC)[C@@H]1O[C@H](CO)[C@@H](N=[N+]=[N-])[C@H](O)[C@H]1O)CC2 [Col44, 4-deoxy-4-azido-D-glucoside]	5.44
COc1cc2c(c(OC)c1OC)-c1ccc(OC)c(=O)cc1[C@@H](NC(=O)CN(OC)[C@@H]1O[C@H](CSC(C)=O)[C@H](O)[C@H](O)[C@H]1O)CC2 [Col68, 6-deoxy-6-thio-acyl-D-galactoside]	5.03
COc1cc2c(c(OC)c1OC)-c1ccc(OC)c(=O)cc1C(NC(=O)CN(OC)C1OC(COCc3ccccc3)C(OCc3ccccc3)C1OCc1ccccc1)CC2 (stereo not drawn)	6.41
COc1cc2c(c(OC)c1OC)-c1ccc(OC)c(=O)cc1[C@@H](NC(=O)CN(OC)[C@@H]1O[C@H](CN=[N+]=[N-])[C@H](O)[C@H](O)[C@H]1O)CC2 [Col43, 6-deoxy-6-azido-D-galactoside]	5.41
COc1cc2c(c(OC)c1OC)-c1ccc(OC)c(=O)cc1C(NC(=O)CN(OC)C1OC(C)C(O)C(O)C1O)CC2 [Col37, L-rhamnoside]	5.11

In: Determine its reported pIC50: COc1cc2c(c(OC)c1OC)-c1ccc(OC)c(=O)cc1[C@@H](NC(=O)CN(OC)[C@H]1C[C@@H](O)[C@H](O)[C@@H](CO)O1)CC2 [Col16, 2-deoxy-D-glucoside]
Out: 5.36

In: Identify measured pIC50 associated with COc1cc2c(c(OC)c1OC)-c1ccc(OC)c(=O)cc1[C@@H](NC(=O)CN(OC)[C@@H]1O[C@H](CCl)[C@H](O)[C@H](O)[C@H]1O)CC2 [Col41, 6-deoxy-6-chloro-D-galactoside]
Out: 5.03

In: Let me know recorded pIC50 for COc1cc2c(c(OC)c1OC)-c1ccc(OC)c(=O)cc1[C@@H](NC(=O)CN(OC)[C@@H]1O[C@H](CBr)[C@H](O)[C@H](O)[C@H]1O)CC2 [Col42, 6-deoxy-6-bromo-D-galactoside] , thanks.
Out: 5.53

In: Indicate its recorded pIC50; the molecule in question is CCCCCCCCCC(=O)NC[C@H]1O[C@@H](N(CC(=O)N[C@H]2CCc3cc(OC)c(OC)c(OC)c3-c3ccc(OC)c(=O)cc32)OC)[C@H](O)[C@@H](O)[C@@H]1O [Col59, 6-deoxy-6-N-decanoyl-D-glucosaminoside]
Out: 5.07

====

Test system: SF-268
ASSAY_NOTES: Cytotoxicity assay (cell titer-glo and calcein AM), SF-268
APPLIED_CONDITIONS: read-out: Cytotoxicity IC50, SF-268, CTG; SF-268; CTG (cell titer-glo) readout; % error in parentheses
Reported pIC50 is given for each of the following compounds.
// pIC50 is dimensionless: -log10 of concentration (M)

COc1cc2c(c(OC)c1OC)-c1ccc(OC)c(=O)cc1C(NC(=O)CN(OC)C1CC(O)C(O)C(C)O1)CC2 [Col65, D-Digitoxoside]	6.10
COc1cc2c(c(OC)c1OC)-c1ccc(OC)c(=O)cc1[C@@H](NC(=O)CN(OC)[C@@H]1O[C@H](CN=[N+]=[N-])[C@H](O)[C@H](O)[C@H]1O)CC2 [Col43, 6-deoxy-6-azido-D-galactoside]	5.29

In: Indicate the recorded pIC50 value for this compound: COc1cc2c(c(OC)c1OC)-c1ccc(OC)c(=O)cc1[C@@H](NC(=O)CN(OC)[C@@H]1O[C@H](CO)[C@@H](N=[N+]=[N-])[C@H](O)[C@H]1O)CC2 [Col44, 4-deoxy-4-azido-D-glucoside]
Out: 6.64

====

Test system: Hep3B
ASSAY_NOTES: Cytotoxicity assay (cell titer-glo and calcein AM), Hep3B
APPLIED_CONDITIONS: read-out: Cytotoxicity IC50, Hep 3B, CTG; Hep 3B; CTG (cell titer-glo) readout; % error in parentheses
MEASURED_PROPERTY: IC50 (µM)
Numeric answer only, unit µM assumed.

In: Indicate the recorded IC50 value for this compound: COc1cc2c(c(OC)c1OC)-c1ccc(OC)c(=O)cc1[C@@H](NC(=O)CN(OC)[C@@H]1OC[C@@H](O)[C@@H](O)[C@H]1O)CC2 [Col5, D-riboside]
Out: 9.86

====

pIC50 values for the compounds below.
Tested on: SK-OV-3
ASSAY_NOTES: Cytotoxicity assay (cell titer-glo and calcein AM), SK-OV-3
APPLIED_CONDITIONS: read-out: Cytotoxicity IC50, SK-OV-3, calcein; SK-OV-3; calcein AM readout; % error in parentheses
Just the number, please; pIC50 means minus log10 of the concentration in mol/L.

Some compounds with recorded pIC50:
COc1cccc2c1C(=O)c1c(O)c3c(c(O)c1C2=O)C[C@@](O)(C(=O)CO)C[C@@H]3O[C@H]1C[C@H](N)[C@H](O)[C@H](C)O1	6.21
COc1cc2c(c(OC)c1OC)-c1ccc(OC)c(=O)cc1[C@@H](NC(=O)CN(OC)[C@@H]1O[C@H](CO)[C@@H](O)C[C@H]1O)CC2 [Col3, 3-deoxy-D-glucoside]	5.38

In: Consider the compound COc1cc2c(c(OC)c1OC)-c1ccc(OC)c(=O)cc1[C@@H](NC(=O)CN(OC)[C@@H]1O[C@H](CCl)[C@H](O)[C@H](O)[C@H]1O)CC2 [Col41, 6-deoxy-6-chloro-D-galactoside] and give its recorded pIC50.
Out: 5.10

====

Tested on: SF-268
ASSAY_NOTES: Cytotoxicity assay (cell titer-glo and calcein AM), SF-268
APPLIED_CONDITIONS: read-out: Cytotoxicity IC50, SF-268, CTG; SF-268; CTG (cell titer-glo) readout; % error in parentheses
Reported pIC50 is given for each of the following compounds.
Conceptually, pIC50 converts a concentration in mol/L into minus its log10.

See these solved cases before continuing.
COc1cc2c(c(OC)c1OC)-c1ccc(OC)c(=O)cc1[C@@H](NC(=O)CN(OC)[C@@H]1O[C@H](CO)[C@H](O)[C@H](O)[C@H]1NC(C)=O)CC2 [Col28, N-acetyl-D-galactosaminoside]	5.24
COc1cc2c(c(OC)c1OC)-c1ccc(OC)c(=O)cc1C(NC(=O)CN(OC)C1OC(COCc3ccccc3)C(OCc3ccccc3)C1OCc1ccccc1)CC2 (centres unmarked)	7.43

In: Answer with the recorded pIC50 of COc1cc2c(c(OC)c1OC)-c1ccc(OC)c(=O)cc1[C@@H](NC(=O)CN(OC)[C@@H]1O[C@H](CO)[C@@H](O)[C@H](F)[C@H]1O)CC2 [Col33, 3-fluoro-3-deoxy-D-glucoside] only.
Out: 6.07

In: Look up pIC50 of COc1cc2c(c(OC)c1OC)-c1ccc(OC)c(=O)cc1[C@@H](NC(=O)CN(OC)[C@@H]1O[C@H](CBr)[C@H](O)[C@H](O)[C@H]1O)CC2 [Col42, 6-deoxy-6-bromo-D-galactoside] and report it.
Out: 5.20
